Listing: EC50 of selected compounds
- STUDY_SYSTEM: UniProtKB P41145
- Sequence (P41145 whole entry): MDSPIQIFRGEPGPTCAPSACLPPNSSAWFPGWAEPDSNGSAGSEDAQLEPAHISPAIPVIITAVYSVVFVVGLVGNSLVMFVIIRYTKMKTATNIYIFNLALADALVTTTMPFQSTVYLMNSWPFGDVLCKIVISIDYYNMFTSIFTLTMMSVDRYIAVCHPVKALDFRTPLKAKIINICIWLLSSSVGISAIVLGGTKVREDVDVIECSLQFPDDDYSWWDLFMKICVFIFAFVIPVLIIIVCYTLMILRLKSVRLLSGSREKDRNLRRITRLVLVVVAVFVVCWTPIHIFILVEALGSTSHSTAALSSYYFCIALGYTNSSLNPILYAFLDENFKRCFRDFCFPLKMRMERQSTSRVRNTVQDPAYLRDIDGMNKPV
- EXPERIMENT_NOTES: In vitro functional assay, HTRF cAMP-Gi in CHO-K1-OPRK1 cells
- Assay type: cell-based
Square brackets hold non-standard residues; d marks the D form. Peptide text beside a SMILES is read from it. * marks the point of attachment. dPhLac = O=C(O)[C@H](O)Cc1ccccc1; X4 = COC(=O)NC1CCN(*)CC1
Hi! Could you send only the number? It should be in nM, unit omitted.

Use these answered entries as a reference point.
COMPOUND | EC50 (nM)
CC(C)C[C@@H](NC(=O)[C@@H](Cc1ccccc1)NC(=O)N(C)C(CN)c1ccccc1)C(=O)N[C@H](CCCCN)C(=O)N1CCNCC1 (stereo partly shown) [Compound 38] | 0.54
CC(C)C[C@@H](NC(=O)[C@@H](Cc1ccccc1)NC(=O)N(CCN)Cc1ccccc1)C(=O)N[C@H](CCCCN)C(=O)N1CCOCC1 [Compound 39] | 0.35
CC(C)C[C@@H](NC(=O)[C@@H](Cc1ccccc1)NC(=O)N(Cc1ccccc1)C1CCNC1)C(=O)N[C@H](CCCCN)C(=O)N1CCC(N)(C(=O)O)CC1 (stereo partly shown) [Compound 27] | 0.87
COC(=O)N1CCN(C(=O)[C@@H](CCCCN)NC(=O)[C@@H](CC(C)C)NC(=O)[C@@H](Cc2ccccc2)NC(=O)N(CCN)Cc2ccccc2)CC1 [Compound 46] | 0.22

input: Look up EC50: COC(=O)C1(N)CCN(C(=O)[C@@H](CCCCN)NC(=O)[C@@H](CC(C)C)NC(=O)[C@@H](Cc2ccccc2)NC(=O)N(C)C(CN)c2ccccc2)CC1 (stereo partly shown) [Compound 14]
output: 8.2

input: Check CC(C)C[C@@H](NC(=O)[C@@H](Cc1ccccc1)NC(=O)N(CCN)Cc1ccccc1)C(=O)N[C@H](CCCCN)C(=O)N1CCC(C#N)CC1 [Compound 35] too.
output: 0.17

input: Check CC(C)C[C@@H](NC(=O)[C@@H](Cc1ccccc1)NC(=O)N(CCN)Cc1ccccc1)C(=O)N[C@H](CCCCN)C(=O)N1CCC(NC(=O)OC2CCOCC2)CC1 [Compound 24] too.
output: 0.27

input: Check COC(=O)NC1CCN(C(=O)[C@@H](CCCCN)NC(=O)[C@@H](CC(C)C)NC(=O)[C@@H](Cc2ccccc2)NC(=O)[C@H](O)Cc2ccccc2)CC1 [Compound 11] (H-[dPhLac][dF][dL][dK]-X4) too.
output: 5.1

input: Check CC(C)C[C@@H](NC(=O)[C@@H](Cc1ccccc1)NC(=O)N(C)C(CN)c1ccccc1)C(=O)N[C@H](CCCCN)C(=O)N1CCC(NC(=O)OC2CCOCC2)CC1 (stereo partly shown) [Compound 33] too.
output: 0.81

input: Check COC(=O)NC1CCN(C(=O)[C@@H](C)NC(=O)[C@@H](CC(C)C)NC(=O)[C@@H](Cc2ccccc2)NC(=O)[C@H](N)Cc2ccccc2)CC1 [Compound 12A] (H-[dF][dF][dL][dA]-X4) too.
output: 0.07

input: Check COC(=O)NC1CCN(C(=O)[C@@H](CCCCN)NC(=O)[C@@H](CC(C)C)NC(=O)[C@@H](Cc2ccccc2)NC(=O)N(C)C(CN)c2ccccc2)CC1 (stereo partly shown) [Compound 12] too.
output: 0.17

input: Check COC(=O)NC1CCN(C(=O)[C@@H](C)NC(=O)[C@@H](CC(C)C)NC(=O)[C@@H](Cc2ccccc2)NC(=O)N(CCN)Cc2ccccc2)CC1 [Compound 42] too.
output: 0.46

input: Check CC(C)C[C@@H](NC(=O)[C@@H](Cc1ccccc1)NC(=O)N(CCN)Cc1ccccc1)C(=O)N[C@H](CCCCN)C(=O)N1CCC(F)(C(=O)O)CC1 [Compound 34] too.
output: 0.71
